Would you mind labelling by melting point? At or over 200 °C is yes (1), under is no (0).

COc1cc(C)nc(NC(=O)NS(=O)(=O)c2c(C)csc2C)n1 : no (0)
CCc1nc(NC(=O)NS(=O)(=O)c2c(C)csc2C)nc(OC)n1 : no (0)

# input for lookup
Entry COc1nc(NC(=O)NS(=O)(=O)c2c(C)csc2C)nc(C2CC2)n1 : is its melting point no less than 200 °C?
no (0)

* * *

# Test system: Amaranthus
# Assay comment: Pre-emergence Test/Greenhouse
# Format: in vivo
# Condition label: 504 h, 60 g of ai./ha, after three weeks, 0%=no effect, 100%=total destruction, read-out: degree of damage, Amaranthus
Result type: pest or weed control at 60 g/ha (%)
API: value field is a number in %; no unit string.

Cc1cc(C)nc(NC(=O)NS(=O)(=O)c2c(C)csc2C)n1 [Example 14] : 90
COc1nc(NC(=O)NS(=O)(=O)c2c(C)csc2C)nc(C2CC2)n1 [Example 10] : 80

Data request, read-out pest or weed control at 60 g/ha, for COc1cc(Cl)nc(NC(=O)NS(=O)(=O)c2c(C)csc2C)n1 [Example 16]
95

Note, next up: COc1cc(C)nc(NC(=O)NS(=O)(=O)c2c(C)csc2C)n1 [Example 15]
90

Note, next up: COc1nc(NC(=O)NS(=O)(=O)c2c(C)csc2C)nc(OC)n1 [Example 9]
90
